Source: PubChem BioAssay AID248

System: L1210 leukemia ip in BDF1 mice, survival T/C
Assay: NCI In Vivo Anticancer Drug Screen. Data for tumor model L1210 Leukemia (intraperitoneal) in B6D2F1 (BDF1) mice
Conditions: endpoint: mean survival time; dose: 100.0 mg/kg/injection; schedule: Q04DX002 (ip); vehicle: saline with Tween-80; higher = longer survival
Toxic doses and inconclusive results are not listed.
The following compounds are listed with their measured T/C values.

Examples with answers:
* C=CCOC(=O)Nc1cccc(O)c1 | 106 % of control
* CC(=O)NC(C=O)C(OC(C)=O)C(OC(C)=O)C(COC(C)=O)OC(C)=O (configuration not stated) | 100 % of control
* BrCC(CCCc1ccccc1)CCc1ccccc1 (configuration not stated) | 93 % of control
* COc1cc(OC)cc(-n2cccc2)c1 | 90 % of control
* CCC[CH2][Sn](=[O])[OH] | 91 % of control

Now for another entry.
So, N#Cc1c(/N=C/c2ccccc2Cl)sc2c1CCC2 ? Its T/C was 91 % of control
